Tested on: 922993-354-T-J3-PDC complex spheroids, viability, % test/control
Assay explanation: Anticancer human tumor 922993-354-T-J3-PDC patient-derived endometrial carcinoma cell line growth inhibition [CLK]
Settings: second compound 1 µM; first compound 1 µM; stronger effect = lower value
Result type: viability, T/C (%)
State just the number; it will be interpreted in %.

Record excerpt, results attached:
INPUT: Need viability, T/C, item COc1ccc([C@@H](O)c2cc(-c3ncnc4cc(N5CCOCC5)ccc34)c(F)cc2Cl)nn1 + CN1CCN(c2cc(C(=O)Nc3cc4cc(-c5cnn(C)c5)ccc4cn3)ccn2)CC1
OUTPUT: 0.11

INPUT: Need viability, T/C, item C=C(F)C(=O)N1CCN(c2nc(OCC3CCCN3C)nc3c2CCN(c2cccc4cccc(Cl)c24)C3)CC1CC#N (stereo not given) + CNC(=O)c1ccc(Nc2nc(OC3CCCC3)c3c(-c4ccc5nc(C)oc5c4)c[nH]c3n2)c(OC)c1
OUTPUT: 38.5

INPUT: Need viability, T/C, item C#Cc1c(F)ccc2cc(O)cc(-c3ncc4c(N5CC6CCC(C5)N6)nc(OCC56CCCN5CC(F)C6)nc4c3F)c12 (stereo not given) + CNC(=O)c1ccc(Nc2nc(OC3CCCC3)c3c(-c4ccc5nc(C)oc5c4)c[nH]c3n2)c(OC)c1
OUTPUT: 37

Next:
INPUT: Need viability, T/C, item Nc1ccn(C2OC(CO)C(O)C2(F)F)c(=O)n1 (stereo not given) + CN1CCN(c2cc(C(=O)Nc3cc4cc(-c5cnn(C)c5)ccc4cn3)ccn2)CC1
OUTPUT: 0.06

INPUT: Need viability, T/C, item COC1C=CCC(C)C(C)S(=O)(=O)NC(=O)c2ccc3c(c2)N(CC2CCC21)CC1(CCCc2cc(Cl)ccc21)CO3 (stereo not given) + CNC(=O)c1ccc(Nc2nc(OC3CCCC3)c3c(-c4ccc5nc(C)oc5c4)c[nH]c3n2)c(OC)c1
OUTPUT: 27.7

###

Test system: 922993-354-T-J3-PDC complex spheroids, viability, % test/control
Assay explanation: Anticancer human tumor 922993-354-T-J3-PDC cell line growth inhibition [CLK];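 note: spheroids exposed to the agents for 7 days before readout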
Settings: curve of first compound; second compound 3.16 µM
Result type: IC50

INPUT: What IC50 appears in the records for this molecule with 922993-354-T-J3-PDC complex spheroids, viability, % test/control? Nc1ccccc1NC(=O)c1ccc(CNC(=O)OCc2cccnc2)cc1 + CNC(=O)c1ccc(Nc2nc(OC3CCCC3)c3c(-c4ccc5nc(C)oc5c4)c[nH]c3n2)c(OC)c1
OUTPUT: < 31.6 nM

INPUT: What IC50 appears in the records for this molecule with 922993-354-T-J3-PDC complex spheroids, viability, % test/control? COc1ccc([C@@H](O)c2cc(-c3ncnc4cc(N5CCOCC5)ccc34)c(F)cc2Cl)nn1 + CNC(=O)c1ccc(Nc2nc(OC3CCCC3)c3c(-c4ccc5nc(C)oc5c4)c[nH]c3n2)c(OC)c1
OUTPUT: < 31.6 nM

INPUT: What IC50 appears in the records for this molecule with 922993-354-T-J3-PDC complex spheroids, viability, % test/control? C=CC(=O)Nc1cc(Nc2nccc(-c3cn(C)c4ccccc34)n2)c(OC)cc1N(C)CCN(C)C + CN1CCN(c2cc(C(=O)Nc3cc4cc(-c5cnn(C)c5)ccc4cn3)ccn2)CC1
OUTPUT: < 0.949 nM

INPUT: What IC50 appears in the records for this molecule with 922993-354-T-J3-PDC complex spheroids, viability, % test/control? COc1ccc([C@@H](O)c2cc(-c3ncnc4cc(N5CCOCC5)ccc34)c(F)cc2Cl)nn1 + CN1CCN(c2cc(C(=O)Nc3cc4cc(-c5cnn(C)c5)ccc4cn3)ccn2)CC1
OUTPUT: < 31.6 nM

INPUT: What IC50 appears in the records for this molecule with 922993-354-T-J3-PDC complex spheroids, viability, % test/control? CC(C)CC(NC(=O)C(Cc1ccccc1)NC(=O)c1cnccn1)B(O)O (stereo not given) + CNC(=O)c1ccc(Nc2nc(OC3CCCC3)c3c(-c4ccc5nc(C)oc5c4)c[nH]c3n2)c(OC)c1
OUTPUT: < 0.949 nM

INPUT: What IC50 appears in the records for this molecule with 922993-354-T-J3-PDC complex spheroids, viability, % test/control? O=c1[nH]cc(F)c(=O)[nH]1 + CNC(=O)c1ccc(Nc2nc(OC3CCCC3)c3c(-c4ccc5nc(C)oc5c4)c[nH]c3n2)c(OC)c1
OUTPUT: < 31.6 nM

Next:
INPUT: What IC50 appears in the records for this molecule with 922993-354-T-J3-PDC complex spheroids, viability, % test/control? CC(=O)O[C@H]1C(=O)[C@@]2(C)[C@H]([C@H](OC(=O)c3ccccc3)[C@]3(O)C[C@H](OC(=O)[C@H](O)[C@@H](NC(=O)c4ccccc4)c4ccccc4)C(C)=C1C3(C)C)[C@]1(OC(C)=O)CO[C@@H]1C[C@@H]2O + CN1CCN(c2cc(C(=O)Nc3cc4cc(-c5cnn(C)c5)ccc4cn3)ccn2)CC1
OUTPUT: < 31.6 nM

INPUT: What IC50 appears in the records for this molecule with 922993-354-T-J3-PDC complex spheroids, viability, % test/control? COc1c(OCCCN2CCOCC2)ccc2c3n(c(=NC(=O)c4cnc(N)nc4)nc12)CCN3 + CN1CCN(c2cc(C(=O)Nc3cc4cc(-c5cnn(C)c5)ccc4cn3)ccn2)CC1
OUTPUT: < 3.16 nM

INPUT: What IC50 appears in the records for this molecule with 922993-354-T-J3-PDC complex spheroids, viability, % test/control? CCN1CCN(Cc2ccc(Nc3ncc(F)c(-c4cc(F)c5nc(C)n(C(C)C)c5c4)n3)nc2)CC1 + CN1CCN(c2cc(C(=O)Nc3cc4cc(-c5cnn(C)c5)ccc4cn3)ccn2)CC1
OUTPUT: < 3.16 nM

INPUT: What IC50 appears in the records for this molecule with 922993-354-T-J3-PDC complex spheroids, viability, % test/control? CC1(C)CCC(CN2CCN(c3ccc(C(=O)NS(=O)(=O)c4ccc(NCC5CCOCC5)c([N+](=O)[O-])c4)c(Oc4cnc5[nH]ccc5c4)c3)CC2)=C(c2ccc(Cl)cc2)C1 + CN1CCN(c2cc(C(=O)Nc3cc4cc(-c5cnn(C)c5)ccc4cn3)ccn2)CC1
OUTPUT: < 31.6 nM

Cited source: PubChem BioAssay AID2060606
